Label yes when glass transition temperature < 50 °C; otherwise no.

Record excerpt, results attached:
• *CCC[Si](*)(C)C[Si](C)(C)C (repeat unit) = yes
• *c1ccc(Oc2ccc(C3(c4ccc(Oc5ccc(N6C(=O)c7ccc(Oc8ccc(C9(c%10ccc(Oc%11ccc%12c(c%11)C(=O)N(*)C%12=O)cc%10)CCC(c%10ccccc%10)CC9)cc8)cc7C6=O)cc5)cc4)CCC(C(C)(C)C)CC3)cc2)cc1 (repeat unit) = no
• *CCOc1ccc(S(=O)(=O)c2ccc(OCCOP(=O)(O*)Oc3ccc(OC)cc3)cc2)cc1 (repeat unit) = no
• *c1ccc(Oc2cccc(-c3cc(-c4ccccc4)cc(-c4cccc(Oc5ccc(-n6c(=O)c7cc8c(=O)n(*)c(=O)c8cc7c6=O)cc5)c4)n3)c2)cc1 (repeat unit) = no
• *C/C=C/COC(=O)C(Cc1ccccc1)NC(=O)CCCCCCCCC(=O)NC(Cc1ccccc1)C(=O)O* (repeat unit) = yes

We next turn to a different compound, shown below.
Q. Is it true that glass transition temperature reported for *CC(*)(CF)C(=O)OCC (repeat unit) is less than 50 °C?
A. yes

----------
quantity name: glass transition temperature (°C)
Value expressed in °C; do not type the unit.

* *CC(*)c1ccc(C(=O)OCCCCCC)cc1 (repeat unit) | 66.00
* *CCCCCCCCCCOC(=O)O* (repeat unit) | -37.00
* *CCCCOc1ccc(C(=O)Nc2cccc(P(=O)(c3ccccc3)c3cccc(NC(=O)c4ccc(O*)cc4)c3)c2)cc1 (repeat unit) | 191.00
* *C1CCCCC1S(*)(=O)=O (repeat unit) | 77.00
* *CC(O)COc1cccc(O*)c1 (repeat unit) | 65.00

Data point: *CC(*)C(F)(F)F (repeat unit) ; glass transition temperature = 27

Data point: *CC(*)(C)C(=O)OCCN(CC)c1ccc(/N=N/c2ccc(OC)cc2)c(C)c1 (repeat unit) ; glass transition temperature = 95.00

Data point: *CCCP(CCCNC(=O)CCCCC(=O)N*)CC(C)C (repeat unit) ; glass transition temperature = 71.00

Data point: *CCCCCCNC(=O)/C=C(\C)C(=O)N* (repeat unit) ; glass transition temperature = 94.00

Data point: *Oc1ccc(C(C)(C)c2ccc(OC(=O)OCCCCCOC(*)=O)cc2)cc1 (repeat unit) ; glass transition temperature = 49.50

Data point: *CC(*)C(=O)OCCCn1c2ccccc2c2ccccc21 (repeat unit) ; glass transition temperature = 83.00

Data point: *Oc1cc(Oc2ccc(NC(=O)c3cc(NC(=O)C45CC6CC(CC(C6)C4)C5)cc(C(=O)Nc4ccc(*)cc4)c3)cc2)ccc1C12CC3CC(CC(C3)C1)C2 (repeat unit) ; glass transition temperature = 345.00

----------
Reported glass transition temperature values for the following molecules.
Value expressed in °C; do not type the unit.

Worked set:
- *CCc1cc(C)c(*)cc1C (repeat unit): 100.00
- *Nc1ccccc1CCc1ccc(NC(=O)NCCCCCCNC(*)=O)cc1 (repeat unit): 150.00
- *CCCCC(=O)NNC(=O)c1ccc(C(=O)NNC(=O)CCCCOc2ccc(O*)c(C)c2)cc1 (repeat unit): 150.00

Moving on to another molecule below.
Data point: *CC(*)C(=O)OCCCCCC (repeat unit) ; glass transition temperature = -57.00

----------
Reported glass transition temperature values for the following molecules.
Value expressed in °C; do not type the unit.

- *c1ccc(-c2nnc(-c3cccc(-c4nnc(*)n4-c4ccccc4)c3)n2-c2ccccc2)cc1 (repeat unit): 272.50

Data point: *C/C=C/C[Si](*)(C=C)C=C (repeat unit) ; glass transition temperature = -65.00

Data point: *=NP(=NP(=NC(=*)Oc1ccc(OC)cc1)(Oc1ccc(OC)cc1)Oc1ccc(OC)cc1)(Oc1ccc(OC)cc1)Oc1ccc(OC)cc1 (repeat unit) ; glass transition temperature = 37.00
